- Tested Target: EcCc Hfq (Escherichia coli / Caulobacter …, UniProt P0A6X3 1-67+B8GW92:71-82, internal_change)
- Assay Overview: EMSA; Hill n 5.1; EMSA: 34 mM Tris-HCl pH 7.5, 50 mM NaCl, 50 mM KCl, 50 mM NH4Cl, 11.4 mM EDTA, 12% glycerol, 30 C, 30 min, ~1 nM 32P-RNA, Kd in Hfq6; anisotropy: 10 mM Tris-HCl
- Setup Conditions: protein: recombinant; tags: untagged; chain copies: 6; label: 32P; stem-loops
Measured Property: Kd (nM)

R157 (structured_RNA) RNA: GGUGAGGCGCCGAGCGCCUCUGCCCUUCCUGGGCGUUUCCUCCCUAUGACUUUGUAGCCCGGUCUUCAUGGCCGGGCUUUCUUUUU :: 55.7

From: paper PMC6561178
